assay: Activity at Insulin receptor in mouse 3T3-L1 cells assessed as glucose uptake; assay type: cell-based
Record form. Attribute: log10(EC50). Fill in for each entry.
Log scale reminder: EC50 in µM, then log10 taken.

Looking up O=C(Nc1cc(C(=O)Nc2cccc3cc(O)ccc23)cc(C(=O)Nc2cccc3cc(S(=O)(=O)O)ccc23)c1)c1cccc(Cl)c1 , I found its log10(EC50) recorded as 1.79

Looking up O=C(Nc1cccc2cc(S(=O)(=O)O)ccc12)c1cc(NC(=O)c2cccc3ccccc23)cc(C(=O)Nc2cccc3cc(S(=O)(=O)O)ccc23)c1 , I found its log10(EC50) recorded as 1.11

Looking up O=C(Nc1cc(C(=O)Nc2cccc3cc(S(=O)(=O)O)ccc23)cc(C(=O)Nc2cccc3cc(S(=O)(=O)O)ccc23)c1)c1cccc(Cl)c1 , I found its log10(EC50) recorded as 0.76

Looking up O=C(Nc1cccc2cc(S(=O)(=O)O)ccc12)c1cc(C(=O)Nc2cccc3cc(S(=O)(=O)O)ccc23)cc(C(=O)Nc2cccc3cc(S(=O)(=O)O)ccc23)c1 , I found its log10(EC50) recorded as 2.13

Looking up O=C(Nc1cc(C(=O)Nc2cccc3cc(S(=O)(=O)O)ccc23)cc(C(=O)Nc2cccc3cc(S(=O)(=O)O)ccc23)c1)c1ccc(F)cc1 , I found its log10(EC50) recorded as 1.89

Looking up O=C(Nc1cc(C(=O)Nc2cccc3cc(S(=O)(=O)O)ccc23)cc(C(=O)Nc2cccc3cc(S(=O)(=O)O)ccc23)c1)c1cccc([N+](=O)[O-])c1 , I found its log10(EC50) recorded as 1.65

Looking up O=C(Nc1cc(C(=O)Nc2cccc3ccccc23)cc(C(=O)Nc2cccc3cc(S(=O)(=O)O)ccc23)c1)c1cccc(Cl)c1 , I found its log10(EC50) recorded as 1.82

Looking up O=C(Nc1ccc2c(O)c(/N=N/c3ccc(/N=N/c4ccc(S(=O)(=O)O)cc4)cc3S(=O)(=O)O)c(S(=O)(=O)O)cc2c1)Nc1ccc2c(O)cc(S(=O)(=O)O)c(/N=N/c3ccc(/N=N/c4ccc(S(=O)(=O)O)cc4)cc3S(=O)(=O)O)c2c1 , I found its log10(EC50) recorded as 1.95

Looking up O=C(Nc1cc(C(=O)Nc2cccc3cc(S(=O)(=O)O)ccc23)cc(C(=O)Nc2cccc3cc(S(=O)(=O)O)ccc23)c1)c1ccc2ccccc2c1 , I found its log10(EC50) recorded as 0.57

Looking up O=C(Nc1cc(C(=O)Nc2cccc3cc(S(=O)(=O)O)ccc23)cc(C(=O)Nc2cccc3cc(S(=O)(=O)O)ccc23)c1)c1cccc(F)c1 , I found its log10(EC50) recorded as 1.29

Looking up O=C(Nc1cc(C(=O)Nc2cccc3cc(S(=O)(=O)O)ccc23)cc(C(=O)Nc2cccc3cc(S(=O)(=O)O)ccc23)c1)c1ccc(Cl)cc1 , I found its log10(EC50) recorded as 1.86
